- TARGET_OR_TEST_SYSTEM: Vasopressin V1 receptor (Rattus norvegicus) (UniProt P48974+P30560)
- Sequence (P30560 whole entry, looked up): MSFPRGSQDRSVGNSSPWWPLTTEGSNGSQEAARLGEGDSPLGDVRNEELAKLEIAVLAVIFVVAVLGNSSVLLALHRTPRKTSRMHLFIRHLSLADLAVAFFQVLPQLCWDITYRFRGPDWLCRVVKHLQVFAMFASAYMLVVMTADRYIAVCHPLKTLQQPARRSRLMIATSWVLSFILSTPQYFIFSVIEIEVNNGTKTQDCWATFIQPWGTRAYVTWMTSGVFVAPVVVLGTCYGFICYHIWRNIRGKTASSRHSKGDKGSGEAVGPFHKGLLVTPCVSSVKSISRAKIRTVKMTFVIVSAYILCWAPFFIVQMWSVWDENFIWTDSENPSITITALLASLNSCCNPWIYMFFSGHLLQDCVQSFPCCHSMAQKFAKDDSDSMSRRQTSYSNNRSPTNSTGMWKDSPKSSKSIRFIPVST
- Sequence (P48974 whole entry, looked up): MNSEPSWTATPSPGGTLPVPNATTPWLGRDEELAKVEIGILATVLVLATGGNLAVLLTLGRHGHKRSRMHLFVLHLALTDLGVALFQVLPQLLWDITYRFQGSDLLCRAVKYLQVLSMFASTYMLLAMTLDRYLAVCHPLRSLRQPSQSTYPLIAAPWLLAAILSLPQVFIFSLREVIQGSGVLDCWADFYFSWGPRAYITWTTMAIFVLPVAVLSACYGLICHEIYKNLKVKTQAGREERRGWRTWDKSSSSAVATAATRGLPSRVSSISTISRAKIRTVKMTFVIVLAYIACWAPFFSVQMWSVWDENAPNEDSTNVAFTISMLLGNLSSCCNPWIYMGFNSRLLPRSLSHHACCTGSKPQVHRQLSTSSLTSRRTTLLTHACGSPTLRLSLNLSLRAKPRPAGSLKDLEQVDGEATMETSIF
- RUN_DESCRIPTION: Effective dose was determined for Vasopressin V1 receptor antagonistic activity in vivo in anesthetized rats
- Format: functional, organism-based
EXPERIMENTAL_READOUT: Effective dose (nM/kg)

Below, 2 compounds whose answers are already recorded.
| STRUCTURE_SMILES_STRING | Effective dose, nM/kg |
| --- | --- |
| CCOc1ccc(C[C@@H](NC(=O)CC23CC4CC(CC(C4)C2)C3)C(=O)N[C@@H](Cc2ccccc2)C(=O)N[C@H](C(=O)N[C@@H](CC(N)=O)C(=O)N[C@@H](CCCN)C(=O)N2CCC[C@@H]2C(=O)N[C@@H](CCCN=C(N)N)C(N)=O)C(C)C)cc1 | 3.2 |
| CCOc1ccc(C[C@@H](NC(=O)Cc2ccccc2)C(=O)N[C@@H](Cc2ccccc2)C(=O)N[C@H](C(=O)N[C@@H](CC(N)=O)C(=O)NCCCC(=O)N2CCC[C@@H]2C(=O)N[C@@H](CCCN=C(N)N)C(=O)N[C@@H](CCCN=C(N)N)C(N)=O)C(C)C)cc1 | 0.26 |

[A] CC(C)[C@H](NC(=O)[C@H](Cc1ccccc1)NC(=O)[C@@H](Cc1ccc(O)cc1)NC(=O)Cc1ccccc1)C(=O)N[C@@H](CC(N)=O)C(=O)N[C@@H](CCCN=C(N)N)C(=O)N1CCC[C@@H]1C(=O)N[C@@H](CCCN=C(N)N)C(=O)N[C@@H](CCCN=C(N)N)C(N)=O
[B] CCOc1ccc(C[C@@H](NC(=O)CC23CC4CC(CC(C4)C2)C3)C(=O)N[C@@H](Cc2ccccc2)C(=O)N[C@H](C(=O)N[C@@H](CC(N)=O)C(=O)N[C@@H](CCCN=C(N)N)C(=O)N2CCC[C@@H]2C(=O)N[C@@H](CCCN=C(N)N)C(N)=O)C(C)C)cc1
[C] CCOc1ccc(C[C@@H](NC(=O)CC(C)(C)C)C(=O)N[C@@H](Cc2ccccc2)C(=O)N[C@H](C(=O)N[C@@H](CC(N)=O)C(=O)N[C@@H](CCCN=C(N)N)C(=O)N(C)[C@@H](C)C(=O)N[C@@H](CCCN=C(N)N)C(N)=O)C(C)C)cc1
Asked: Put the items in sequence by Effective dose, from largest down. Provide your answer as the labels ordered per the instruction.
Given back: B, C, A
(B: 0.66 nM/kg, C: 0.3 nM/kg, A: 0.16 nM/kg)

###

- TARGET_OR_TEST_SYSTEM: Vasopressin V2 receptor (Rattus norvegicus) (UniProt Q00788)
- Sequence (Q00788 whole entry): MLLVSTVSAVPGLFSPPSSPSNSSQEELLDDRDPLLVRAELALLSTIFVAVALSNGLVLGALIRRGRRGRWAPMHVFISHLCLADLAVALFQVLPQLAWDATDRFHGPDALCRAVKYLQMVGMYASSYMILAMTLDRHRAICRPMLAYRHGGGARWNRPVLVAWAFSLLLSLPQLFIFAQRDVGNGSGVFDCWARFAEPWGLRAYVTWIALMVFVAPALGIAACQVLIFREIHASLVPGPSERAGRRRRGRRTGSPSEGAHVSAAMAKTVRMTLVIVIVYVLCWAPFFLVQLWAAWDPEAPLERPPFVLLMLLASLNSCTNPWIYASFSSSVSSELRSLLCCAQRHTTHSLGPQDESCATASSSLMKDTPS
- RUN_DESCRIPTION: Selectivity ratio of antidiuretic Vasopressin V2 receptor ED /[…] receptor ED
- CONDITION: Urine
EXPERIMENTAL_READOUT: Ratio

Below, 4 compounds whose answers are already recorded.
| STRUCTURE_SMILES_STRING | TARGET_OR_TEST_SYSTEM | Ratio |
| --- | --- | --- |
| CCOc1ccc(C[C@@H](NC(=O)CC(C)(C)C)C(=O)N[C@@H](Cc2ccccc2)C(=O)N[C@H](C(=O)N[C@@H](CC(N)=O)C(=O)NCCCC(=O)N2CCC[C@@H]2C(=O)N[C@@H](CCCN=C(N)N)C(=O)N[C@@H](CCCN=C(N)N)C(N)=O)C(C)C)cc1 | Vasopressin V2 receptor (Rattus norvegicus) (UniProt Q00788) | 1.2 |
| CCOc1ccc(C[C@@H](NC(=O)Cc2ccccc2)C(=O)N[C@@H](Cc2ccccc2)C(=O)N[C@H](C(=O)N[C@@H](CC(N)=O)C(=O)N[C@@H](CCCCN)C(=O)N2CCC[C@@H]2C(=O)N[C@@H](CCCN=C(N)N)C(N)=O)C(C)C)cc1 | Vasopressin V2 receptor (Rattus norvegicus) (UniProt Q00788) | 26 |
| CCOc1ccc(C[C@@H](NC(=O)Cc2ccccc2)C(=O)N[C@@H](Cc2ccccc2)C(=O)N[C@H](C(=O)N[C@@H](CC(N)=O)C(=O)NCCCC(=O)N2CCC[C@@H]2C(=O)N[C@@H](CCCN=C(N)N)C(=O)N[C@@H](CCCN=C(N)N)C(N)=O)C(C)C)cc1 | Vasopressin V2 receptor (Rattus norvegicus) (UniProt Q00788) | 2.7 |
| CCOc1ccc(C[C@@H](NC(=O)CC(C)(C)C)C(=O)N[C@@H](Cc2ccccc2)C(=O)N[C@H](C(=O)N[C@@H](CC(N)=O)C(=O)N[C@@H](CCCCN)C(=O)N2CCC[C@@H]2C(=O)N[C@@H](CCCN=C(N)N)C(N)=O)C(C)C)cc1 | Vasopressin V2 receptor (Rattus norvegicus) (UniProt Q00788) | 41 |

[1] CCOc1ccc(C[C@@H](NC(=O)CC23CC4CC(CC(C4)C2)C3)C(=O)N[C@@H](Cc2ccccc2)C(=O)N[C@H](C(=O)N[C@@H](CC(N)=O)C(=O)N[C@@H](CCCN=C(N)N)C(=O)N2CCC[C@@H]2C(=O)N[C@@H](CCCN=C(N)N)C(N)=O)C(C)C)cc1
[2] CCOc1ccc(C[C@@H](NC(=O)CC23CC4CC(CC(C4)C2)C3)C(=O)N[C@@H](Cc2ccccc2)C(=O)N[C@H](C(=O)N[C@@H](CC(N)=O)C(=O)N[C@@H](CCCN=C(N)N)C(=O)N(C)[C@@H](C)C(=O)N[C@@H](CCCN=C(N)N)C(N)=O)C(C)C)cc1
Asked: Which of the two items, 1 and 2 , has the greater recorded Ratio? Respond with the label that goes with your answer.
Given back: 2
(2: 3.2, 1: 2.1)

###

- TARGET_OR_TEST_SYSTEM: Vasopressin V2 receptor (Rattus norvegicus)
- RUN_DESCRIPTION: Effective dose was determined for Vasopressin V2 receptor antagonistic activity in vivo in anesthetized rats
- Type: functional, organism-based
EXPERIMENTAL_READOUT: Effective dose (nM/kg)

Below, 4 compounds whose answers are already recorded.
| STRUCTURE_SMILES_STRING | NUMBER |
| --- | --- |
| CCOc1ccc(C[C@@H](NC(=O)CC23C[C@H]4C[C@@H](C2)C[C@@H](C3)C4)C(=O)N[C@@H](Cc2ccccc2)C(=O)N[C@H](C(=O)N[C@@H](CC(N)=O)C(=O)NCCCC(=O)N2CCC[C@@H]2C(=O)N[C@@H](CCCN=C(N)N)C(=O)N[C@@H](CCCN=C(N)N)C(N)=O)C(C)C)cc1 | 0.53 |
| COc1ccc(C[C@@H](NC(=O)Cc2ccccc2)C(=O)N[C@@H](Cc2ccccc2)C(=O)N[C@H](C(=O)N[C@@H](CC(N)=O)C(=O)N[C@@H](CCCCN)C(=O)N2CCC[C@@H]2C(=O)N[C@@H](CCCN=C(N)N)C(N)=O)C(C)C)cc1 | 6 |
| CCOc1ccc(C[C@H]2NC(=O)CC3(CCCCC3)SSC[C@H](C(=O)N3CCC[C@H]3C(=O)N[C@@H](CCCN=C(N)N)C(N)=O)NC(=O)[C@@H](CC(N)=O)NC(=O)[C@H](C(C)C)NC(=O)[C@@H](Cc3ccccc3)NC2=O)cc1 | 1.5 |
| CCOc1ccc(C[C@@H](NC(=O)CC23CC4CC(CC(C4)C2)C3)C(=O)N[C@@H](Cc2ccccc2)C(=O)N[C@H](C(=O)N[C@@H](CC(N)=O)C(=O)N[C@@H](CCCCN)C(=O)N2CCC[C@@H]2C(=O)N[C@@H](CCCN=C(N)N)C(=O)N[C@@H](CCCN=C(N)N)C(N)=O)C(C)C)cc1 | 1.4 |

[P] CCOc1ccc(C[C@@H](NC(=O)CC23CC4CC(CC(C4)C2)C3)C(=O)N[C@@H](Cc2ccccc2)C(=O)N[C@H](C(=O)N[C@@H](CC(N)=O)C(=O)N[C@@H](CCCN)C(=O)N2CCC[C@@H]2C(=O)N[C@@H](CCCN=C(N)N)C(N)=O)C(C)C)cc1
[Q] NCCCC[C@H](NC(=O)[C@H](CC(N)=O)NC(=O)[C@H](CCC(N)=O)NC(=O)[C@H](Cc1ccccc1)NC(=O)[C@@H](Cc1ccc(O)cc1)NC(=O)Cc1ccccc1)C(=O)N1CCC[C@@H]1C(=O)N[C@@H](CCCN=C(N)N)C(N)=O
Asked: Which of the two items, P and Q , has the greater recorded Effective dose? Respond with the label that goes with your answer.
Given back: Q

###

- TARGET_OR_TEST_SYSTEM: Vasopressin V2 receptor (Rattus norvegicus) (UniProt Q00788)
- RUN_DESCRIPTION: Selectivity ratio of antidiuretic Vasopressin V2 receptor ED /[…] receptor ED
- CONDITION: Urine
EXPERIMENTAL_READOUT: Ratio
Keep the answer to the number alone.

Asked: Need Ratio, item `CCOc1ccc(C[C@@H](NC(=O)CC23CC4CC(CC(C4)C2)C3)C(=O)N[C@@H](Cc2ccccc2)C(=O)N[C@H](C(=O)N[C@@H](CC(N)=O)C(=O)N[C@@H](CCCN)C(=O)N2CCC[C@@H]2C(=O)N[C@@H](CCCN=C(N)N)C(=O)N[C@@H](CCCN=C(N)N)C(N)=O)C(C)C)cc1`
Given back: 0.6
